# tested.target: Keap1/Nrf2 (Homo sapiens, UniProt Q14145+Q16236)
# Sequence (Q16236 whole entry): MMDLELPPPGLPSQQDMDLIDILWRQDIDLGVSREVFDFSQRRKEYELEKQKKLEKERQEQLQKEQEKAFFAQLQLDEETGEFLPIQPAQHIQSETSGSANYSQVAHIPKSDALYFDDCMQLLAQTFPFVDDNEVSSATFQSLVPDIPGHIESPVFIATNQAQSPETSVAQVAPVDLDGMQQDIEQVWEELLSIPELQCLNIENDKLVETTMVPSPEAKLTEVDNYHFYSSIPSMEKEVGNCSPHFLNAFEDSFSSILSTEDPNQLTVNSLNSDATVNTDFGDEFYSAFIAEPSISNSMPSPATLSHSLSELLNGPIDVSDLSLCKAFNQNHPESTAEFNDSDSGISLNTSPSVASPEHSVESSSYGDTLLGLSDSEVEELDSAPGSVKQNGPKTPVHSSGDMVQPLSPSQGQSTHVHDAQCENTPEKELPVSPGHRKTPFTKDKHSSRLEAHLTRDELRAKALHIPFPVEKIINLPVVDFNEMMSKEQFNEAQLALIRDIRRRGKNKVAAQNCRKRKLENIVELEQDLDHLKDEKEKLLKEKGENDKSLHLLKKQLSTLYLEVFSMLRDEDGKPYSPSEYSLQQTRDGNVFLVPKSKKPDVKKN
# Sequence (Q14145 whole entry): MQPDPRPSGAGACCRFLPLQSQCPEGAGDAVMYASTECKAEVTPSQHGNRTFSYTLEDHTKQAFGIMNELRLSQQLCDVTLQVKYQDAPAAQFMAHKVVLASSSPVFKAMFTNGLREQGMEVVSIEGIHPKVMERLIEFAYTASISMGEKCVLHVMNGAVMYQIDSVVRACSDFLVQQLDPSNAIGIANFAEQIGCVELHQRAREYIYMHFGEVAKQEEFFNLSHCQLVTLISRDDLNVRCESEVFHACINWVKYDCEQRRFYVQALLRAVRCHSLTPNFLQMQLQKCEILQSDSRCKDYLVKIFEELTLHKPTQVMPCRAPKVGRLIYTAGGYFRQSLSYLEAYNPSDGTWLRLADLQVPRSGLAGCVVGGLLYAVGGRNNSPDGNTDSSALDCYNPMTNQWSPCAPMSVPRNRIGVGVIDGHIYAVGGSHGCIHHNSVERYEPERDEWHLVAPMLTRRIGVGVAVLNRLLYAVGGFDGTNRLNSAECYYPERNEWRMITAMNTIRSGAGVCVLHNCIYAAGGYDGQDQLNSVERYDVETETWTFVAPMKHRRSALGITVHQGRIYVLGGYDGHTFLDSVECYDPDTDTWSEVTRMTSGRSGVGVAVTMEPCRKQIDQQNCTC
# experimental.protocol: Activation of NRF2 in human U2OS cells co-expressing Keap1 (unknown origin) assessed as induction of NRF2 translocation to nucleus incubated for 6 hrs by beta-galactosidase based chemiluminescent assay
# Type: cell-based
Each item that follows carries a reported EC50.

>  <smiles.repr>
O=C(/C=C/c1ccccn1)c1ccc(OCCCN2CCOCC2)cc1

>  <EC50>
> 5 µM

$$$$
>  <smiles.repr>
O=C(/C=C/c1cccnc1)c1ccc(OCCCN2CCOCC2)cc1

>  <EC50>
> 5 µM

$$$$
>  <smiles.repr>
O=C(/C=C/c1ccccc1C(F)(F)F)c1ccc(OCCCN2CCCC2)cc1

>  <EC50>
> 1 µM

$$$$
